Biological target: UniProt:O15294
Assay: High-throughput kinetic protease-protection screen with polypeptide 4.10
Type: biochemical
Conditions: 25 μg/mL (~70 μM); hit = <70% activity in one duplicate and <80% in the second
experimental.readout: hit in the high throughput screen

Clc1cccc(C(c2nnc(-c3ccccc3)o2)N2CCN(c3ccccc3)CC2)c1 (centres unmarked)    singleton hits
O=C1OCc2ccccc21    singleton hits
Cl.Cl.N=C(N)c1cccc(NC(=O)Nc2cccc(C(=N)N)c2)c1    singleton hits
N#CSc1cc(SC#N)c(N)nc1N    hits
Fc1ccc(NC2=NCCN2)cc1    singleton hits
Cc1cc(C)c2c(C(=O)O)cc(O)nc2c1    singleton hits
O=C(O)[C@H](Cc1ccccc1)N1Cc2ccccc2C1=O    singleton hits
O=C(/C=C/c1cccs1)Nc1scc(-c2ccccc2)c1C(=O)O    singleton hits
CSC(SC)=C(C#N)S(=O)(=O)c1ccc(Cl)cc1    hits
CCn1cc(C(=O)N2CCOCC2)c(=O)c2cc(S(=O)(=O)N(C)C)ccc21    singleton hits

Entry COc1cccc(/N=C\c2c[nH]c3ccccc23)c1 : reported hit in the high throughput screen = ?
hits

* * *

As shown below, each of these substances has a reported Relative rate of glycosylation value.
Target: O-Linked N-acetylglucosaminyltransferase (OGT) (Homo sapiens, UniProt O15294)
Sequence (O15294 1-1046): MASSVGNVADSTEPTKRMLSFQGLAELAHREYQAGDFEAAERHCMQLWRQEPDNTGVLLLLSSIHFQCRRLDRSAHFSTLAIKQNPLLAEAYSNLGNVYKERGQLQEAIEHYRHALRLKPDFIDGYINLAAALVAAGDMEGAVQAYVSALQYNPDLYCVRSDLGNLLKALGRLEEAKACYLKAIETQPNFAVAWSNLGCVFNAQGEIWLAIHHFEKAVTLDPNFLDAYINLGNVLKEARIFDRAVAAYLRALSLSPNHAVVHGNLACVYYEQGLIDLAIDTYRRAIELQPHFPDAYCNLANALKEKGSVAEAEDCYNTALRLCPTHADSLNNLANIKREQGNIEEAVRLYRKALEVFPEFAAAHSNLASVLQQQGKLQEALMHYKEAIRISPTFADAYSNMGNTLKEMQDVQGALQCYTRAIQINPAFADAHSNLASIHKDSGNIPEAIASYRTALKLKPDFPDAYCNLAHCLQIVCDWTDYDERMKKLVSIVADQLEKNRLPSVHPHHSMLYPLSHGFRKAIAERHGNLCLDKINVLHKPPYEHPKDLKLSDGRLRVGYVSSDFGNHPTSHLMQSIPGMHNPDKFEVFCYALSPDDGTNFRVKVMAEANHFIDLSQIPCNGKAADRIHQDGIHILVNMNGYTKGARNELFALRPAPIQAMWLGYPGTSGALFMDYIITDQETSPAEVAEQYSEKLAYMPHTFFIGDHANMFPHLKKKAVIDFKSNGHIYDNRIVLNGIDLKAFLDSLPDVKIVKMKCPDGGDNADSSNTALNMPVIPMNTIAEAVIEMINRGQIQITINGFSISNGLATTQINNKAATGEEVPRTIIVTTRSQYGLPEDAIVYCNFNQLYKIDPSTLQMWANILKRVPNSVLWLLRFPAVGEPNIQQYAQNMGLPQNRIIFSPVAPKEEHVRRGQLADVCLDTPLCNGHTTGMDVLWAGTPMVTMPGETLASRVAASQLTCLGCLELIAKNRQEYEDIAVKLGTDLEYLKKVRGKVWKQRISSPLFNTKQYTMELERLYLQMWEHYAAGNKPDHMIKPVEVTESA
Experiment: Glycosylation of CK2-derived polypeptide substrates by OGT, quantified by LC/MS
Assay type: biochemical
Conditions: OGT, LC/MS peak integration at 445 nm; relative to wt polypeptide 4.1
Excerpt: To address the first requirement, a panel of polypeptides was synthesized based on a truncated version of the CKII polypeptide [CKII peptide PGGSTPVSSNAMM (SEQ ID NO:20)]. The polypeptide was modified from the native sequence in several ways. […] The second required installation of a quencher molecule, which measured total fluorescence intensity. […] Peak integration (measured at 445 nm) was used to quantitative products and reactants and mass spectrometry was used to confirm peak identity. […]
Non-standard residues stand in square brackets, D forms with d. Primed or numbered codes have the meaning given here. No end group written: not given here. *: point of attachment. FITC = O=C1OC2(c3ccc(O)cc3Oc3cc(O)ccc32)c2ccc(NC(=S)*)cc21; Aha′ = not defined here
Give the figure by itself; no unit, no explanation.

Below are worked cases with known answers.
FITC(Aha)STPVSRANMK ({FITC}-[Aha′]STPVSRANMK; reading uncertain; also: printed as FITC(Aha)STPVSRANMK) [Polypeptide 4.5]    0.7
FITC(Aha)STPVSFANMK ({FITC}-[Aha′]STPVSFANMK; reading uncertain; also: printed as FITC(Aha)STPVSFANMK) [Polypeptide 4.4]    0.4
FITC(Aha)STPFSSANMK ({FITC}-[Aha′]STPFSSANMK; reading uncertain; also: printed as FITC(Aha)STPFSSANMK) [Polypeptide 4.2]    0.15
FITC(Aha)STPRSSANMK ({FITC}-[Aha′]STPRSSANMK; reading uncertain; also: printed as FITC(Aha)STPRSSANMK) [Polypeptide 4.3]    0

Attention now shifts to the item below.
Using the record for FITC(Aha)STPVSSANMK ({FITC}-[Aha′]STPVSSANMK; reading uncertain; also: printed as FITC(Aha)STPVSSANMK) [Polypeptide 4.1] , report its Relative rate of glycosylation.
1
